experiment.summary: plasma pharmacokinetics in patients (HPLC–MS/MS, non-compartmental analysis)
Type: in vivo, human
conditions: human, plasma, oral, Dose-level 3: dacomitinib 15 mg QD + PD-0325901 4 mg BID; Cycle 1 Day 1; n = 2; read-out: Cmax PD-0325901, mean (CV%)
recorded.endpoint: Cmax (ng/mL)
Numeric only. Scale: ng/mL

Answer with the recorded Cmax for the molecule listed here: O=C(NOC[C@H](O)CO)c1ccc(F)c(F)c1Nc1ccc(I)cc1F
106

----------
experiment.summary: plasma pharmacokinetics in patients (HPLC–MS/MS, non-compartmental analysis)
Type: in vivo, human
conditions: human, plasma, oral, 6 mg, All 6 mg doses; Cycle 2 Day 1 or last day of concomitant use; n = 6; read-out: Cmax PD-0325901, mean (CV%)
recorded.endpoint: Cmax
Kindly write the number and append the unit.

Answer with the recorded Cmax for the compound listed here: O=C(NOC[C@H](O)CO)c1ccc(F)c(F)c1Nc1ccc(I)cc1F
217 ng/mL

----------
experiment.summary: plasma pharmacokinetics in patients (HPLC–MS/MS, non-compartmental analysis)
Assay type: in vivo, human
conditions: human, plasma, oral, Dose-level 2: dacomitinib 15 mg QD + PD-0325901 3 mg BID; Cycle 2 Day 1; n = 5; read-out: AUC0-12h PD-0325901, mean (CV%)
recorded.endpoint: AUC(0-t) (ng·h/mL)
Numeric only. Scale: ng·h/mL

Answer with the recorded AUC(0-t) for the molecule listed here: O=C(NOC[C@H](O)CO)c1ccc(F)c(F)c1Nc1ccc(I)cc1F
279

----------
experiment.summary: plasma pharmacokinetics in patients (HPLC–MS/MS, non-compartmental analysis)
Format: in vivo, human
conditions: human, plasma, oral, Dose-level 2: dacomitinib 15 mg QD + PD-0325901 3 mg BID; Cycle 1 Day 1; n = 6; read-out: AUC0-24h dacomitinib, mean (CV%)
recorded.endpoint: AUC(0-t) (ng·h/mL)
Numeric only. Scale: ng·h/mL

Answer with the recorded AUC(0-t) for the molecule listed here: COc1cc2ncnc(Nc3ccc(F)c(Cl)c3)c2cc1NC(=O)/C=C/CN1CCCCC1
112

----------
experiment.summary: plasma pharmacokinetics in patients (HPLC–MS/MS, non-compartmental analysis)
Format: in vivo, human
conditions: human, plasma, oral, Dose-level 8: dacomitinib 30 mg (5/2) QD + PD-0325901 5 mg (5/2) BID; last day of concomitant use of both drugs; n=2; read-out: AUC0-12h PD-0325901, mean (CV%)
recorded.endpoint: AUC(0-t) (ng·h/mL)
Numeric only. Scale: ng·h/mL

Answer with the recorded AUC(0-t) for the molecule listed here: O=C(NOC[C@H](O)CO)c1ccc(F)c(F)c1Nc1ccc(I)cc1F [PD-0325901]
667

----------
experiment.summary: plasma pharmacokinetics in patients (HPLC–MS/MS, non-compartmental analysis)
Assay type: in vivo, human
conditions: human, plasma, oral, Dose-level 5: dacomitinib 15 mg QD + PD-0325901 6 mg BID; Cycle 1 Day 1; n = 8; read-out: AUC0-12h PD-0325901, mean (CV%)
recorded.endpoint: AUC(0-t) (ng·h/mL)
Numeric only. Scale: ng·h/mL

Answer with the recorded AUC(0-t) for the compound listed here: O=C(NOC[C@H](O)CO)c1ccc(F)c(F)c1Nc1ccc(I)cc1F [PD-0325901]
822

----------
experiment.summary: plasma pharmacokinetics in patients (HPLC–MS/MS, non-compartmental analysis)
Type: in vivo, human
conditions: human, plasma, oral, Dose-level 6: dacomitinib 30 mg (4/3) QD + PD-0325901 6 mg BID; last day of concomitant use of both drugs; n = 1; read-out: Cmax PD-0325901, mean (CV%)
recorded.endpoint: Cmax (ng/mL)
Numeric only. Scale: ng/mL

Answer with the recorded Cmax for the molecule listed here: O=C(NOC[C@H](O)CO)c1ccc(F)c(F)c1Nc1ccc(I)cc1F
254
